These entries and their values trace back to patent US20230330254A1.

- Target or system: human GLP1R (Homo sapiens)
- Sequence (P43220 24-463): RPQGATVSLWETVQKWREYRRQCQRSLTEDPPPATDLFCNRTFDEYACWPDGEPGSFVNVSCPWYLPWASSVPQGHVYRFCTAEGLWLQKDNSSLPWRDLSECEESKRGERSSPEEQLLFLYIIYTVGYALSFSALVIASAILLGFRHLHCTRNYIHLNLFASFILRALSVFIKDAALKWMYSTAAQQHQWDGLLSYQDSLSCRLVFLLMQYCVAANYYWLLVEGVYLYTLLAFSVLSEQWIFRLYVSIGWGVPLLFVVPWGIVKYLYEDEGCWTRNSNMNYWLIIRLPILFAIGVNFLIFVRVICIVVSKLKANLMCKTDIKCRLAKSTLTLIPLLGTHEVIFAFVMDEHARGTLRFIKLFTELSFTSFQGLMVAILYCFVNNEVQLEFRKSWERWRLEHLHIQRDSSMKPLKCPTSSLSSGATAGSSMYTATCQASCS
- Run description: Luciferase reporter assay, HEK293/CRE-Luc/hGLP1R (Example 17)
- Format: cell-based
- Design: engineered to express full-length human GLP1R, cynomolgus GLP1R; expressed in transfected cells; host or cells: HEK293/CRE-Luc
- Assay setup: HEK293/CRE-Luc/hGLP1R; highest RLU / RLU of untreated wells
Where a SMILES comes first, the peptide text is derived from it. [ ]: non-standard residue; d: D form. The star is where a group is joined. Bip(2'-Et,4'-O(CH2)4N3) = CCc1cc(OCCCCN=[N+]=[N-])ccc1-c1ccc(C[C@H](N)C(=O)O)cc1; Bip(2'-Et,4'-O(CH2)4NH2) = CCc1cc(OCCCCN)ccc1-c1ccc(C[C@H](N)C(=O)O)cc1; Nva(5-(3,5-Me2Ph)) = Cc1cc(C)cc(CCC[C@H](N)C(=O)O)c1; Ala(1H-tetrazol-5-yl) = N[C@@H](Cc1nnn[nH]1)C(=O)O; αMePhe(2-F) = C[C@](N)(Cc1ccccc1F)C(=O)O; X3 = CC(C)(C(=O)*)c1ccn[nH]1; X6 = CC(C)(C(=O)NO)C(=O)*
Property measured: S/N
Form field (numeric): enter value without unit.

Lookup: Need S/N of CCc1cc(OCCCCN)ccc1-c1ccc(C[C@H](NC(=O)[C@H](CC(=O)O)NC(=O)[C@H](CO)NC(=O)[C@@H](NC(=O)[C@](C)(Cc2ccccc2F)NC(=O)[C@@H](NC(=O)CNC(=O)[C@H](Cc2nn[nH]n2)NC(=O)C(C)(C)C(=O)NCCc2cnc[nH]2)[C@@H](C)O)[C@@H](C)O)C(=O)Nc2ccccc2)cc1 [P22] , thanks.
Found: 48.9

Lookup: Request: CCc1cc(OCCCCN)ccc1-c1ccc(C[C@H](NC(=O)[C@H](CC(=O)O)NC(=O)[C@H](CO)NC(=O)[C@@H](NC(=O)[C@](C)(Cc2ccccc2F)NC(=O)[C@@H](NC(=O)CNC(=O)[C@H](Cc2nn[nH]n2)NC(=O)C2(C)CCN(CCc3cnc[nH]3)C2=O)[C@@H](C)O)[C@@H](C)O)C(=O)N[C@@H](CCCc2cc(C)cc(C)c2)C(N)=O)cc1 (stereo in doubt) [P14]
Found: 74.9

Lookup: Request: CCc1cc(OCCCCN=[N+]=[N-])ccc1-c1ccc(C[C@H](NC(=O)[C@H](CC(=O)O)NC(=O)[C@H](CO)NC(=O)[C@@H](NC(=O)[C@](C)(Cc2ccccc2F)NC(=O)[C@@H](NC(=O)CNC(=O)[C@@H](N)Cc2nn[nH]n2)[C@@H](C)O)[C@@H](C)O)C(=O)N[C@@H](CCCc2cc(C)cc(C)c2)C(N)=O)cc1 [M2383] (H-[Ala(1H-tetrazol-5-yl)]GT[αMePhe(2-F)]TSD[Bip(2'-Et,4'-O(CH2)4N3)][Nva(5-(3,5-Me2Ph))]-NH2)
Found: 293.3

Lookup: Request: CCc1cc(OCCCCN)ccc1-c1ccc(C[C@H](NC(=O)[C@H](CC(=O)O)NC(=O)[C@H](CO)NC(=O)[C@@H](NC(=O)[C@](C)(Cc2ccccc2F)NC(=O)[C@@H](NC(=O)CNC(=O)[C@H](Cc2nn[nH]n2)NC(=O)C(C)(C)c2ccn[nH]2)[C@@H](C)O)[C@@H](C)O)C(=O)N[C@@H](CCCc2cc(C)cc(C)c2)C(N)=O)cc1 [P6] (X3-[Ala(1H-tetrazol-5-yl)]GT[αMePhe(2-F)]TSD[Bip(2'-Et,4'-O(CH2)4NH2)][Nva(5-(3,5-Me2Ph))]-NH2)
Found: 60.7

Lookup: Request: CCc1cc(OCCCCN)ccc1-c1ccc(C[C@H](NC(=O)[C@H](CC(=O)O)NC(=O)[C@H](CO)NC(=O)[C@@H](NC(=O)[C@](C)(Cc2ccccc2F)NC(=O)[C@@H](NC(=O)CNC(=O)[C@H](Cc2nn[nH]n2)NC(=O)[C@H](C)NC(=O)[C@@H](N)Cc2cnc[nH]2)[C@@H](C)O)[C@@H](C)O)C(=O)N[C@@H](CCCc2cc(C)cc(C)c2)C(N)=O)cc1 [P10] (H-HA[Ala(1H-tetrazol-5-yl)]GT[αMePhe(2-F)]TSD[Bip(2'-Et,4'-O(CH2)4NH2)][Nva(5-(3,5-Me2Ph))]-NH2)
Found: 45.1

Lookup: Request: CCc1cc(OCCCCNC(=O)[C@H](CO)NC(=O)CNC(=O)CNC(=O)CNC(=O)CNC(=O)CCC(=O)N2Cc3ccccc3C#Cc3ccccc32)ccc1-c1ccc(C[C@H](NC(=O)[C@H](CC(=O)O)NC(=O)[C@H](CO)NC(=O)[C@@H](NC(=O)[C@](C)(Cc2ccccc2F)NC(=O)[C@@H](NC(=O)CNC(=O)[C@H](Cc2nn[nH]n2)NC(=O)C(C)(C)C(=O)NCCc2cnc[nH]2)[C@@H](C)O)[C@@H](C)O)C(=O)N[C@@H](CCCc2cc(C)cc(C)c2)C(N)=O)cc1 [LP6, DIBAC- suc-G4S- P9]
Found: 65.7

Lookup: Request: CCc1cc(OCCCCN)ccc1-c1ccc(C[C@H](NC(=O)[C@H](CC(=O)O)NC(=O)[C@H](CO)NC(=O)[C@@H](NC(=O)[C@](C)(Cc2ccccc2F)NC(=O)[C@@H](NC(=O)CNC(=O)[C@H](Cc2nn[nH]n2)NC(=O)[C@H](C)NC(=O)[C@@H](N)Cc2ccc(O)cc2)[C@@H](C)O)[C@@H](C)O)C(=O)N[C@@H](CCCc2cc(C)cc(C)c2)C(N)=O)cc1 [P18]
Found: 68.2

Lookup: Request: CCc1cc(OCCCCNC(=O)CCOCCOCCOCCOCCOCCOCCOCCOCCOCCOCCOCCOCCOCCOCCOCCOCCOCCOCCOCCOCCOCCOCCOCCOCCNC(=O)CCC(=O)N2Cc3ccccc3-c3nn[nH]c3-c3ccccc32)ccc1-c1ccc(C[C@H](NC(=O)[C@H](CC(=O)O)NC(=O)[C@H](CO)NC(=O)[C@@H](NC(=O)[C@](C)(Cc2ccccc2F)NC(=O)[C@@H](NC(=O)CNC(=O)[C@H](Cc2nn[nH]n2)NC(=O)C(C)(C)C(=O)NCCc2cnc[nH]2)[C@@H](C)O)[C@@H](C)O)C(=O)N[C@@H](CCCc2cc(C)cc(C)c2)C(C)=O)cc1 [M2547]
Found: 267.8

Lookup: Request: CCc1cc(OCCCCN)ccc1-c1ccc(C[C@H](NC(=O)[C@H](CC(=O)O)NC(=O)[C@H](CO)NC(=O)[C@@H](NC(=O)[C@](C)(Cc2ccccc2F)NC(=O)[C@@H](NC(=O)CNC(=O)[C@H](Cc2nn[nH]n2)NC(=O)C(C)(C)C(=O)NO)[C@@H](C)O)[C@@H](C)O)C(=O)N[C@@H](CCCc2cc(C)cc(C)c2)C(N)=O)cc1 [P5] (X6-[Ala(1H-tetrazol-5-yl)]GT[αMePhe(2-F)]TSD[Bip(2'-Et,4'-O(CH2)4NH2)][Nva(5-(3,5-Me2Ph))]-NH2)
Found: 50.6

Lookup: Request: CCc1cc(OCCCCn2cc(COCCOCCOCCOCCNC(=O)COC3C#CCCCCC3)nn2)ccc1-c1ccc(C[C@H](NC(=O)[C@H](CC(=O)O)NC(=O)[C@H](CO)NC(=O)[C@@H](NC(=O)[C@](C)(Cc2ccccc2F)NC(=O)[C@@H](NC(=O)CNC(=O)[C@H](Cc2nn[nH]n2)NC(=O)C(C)(C)C(=O)NCCc2cnc[nH]2)[C@@H](C)O)[C@@H](C)O)C(=O)N[C@@H](CCCc2cc(C)cc(C)c2)C(N)=O)cc1 (stereo partly shown) [LP10, COT-PEG4-triazole-P8]
Found: 51.7
